Reported pIC50 values follow for various molecules
- assayed target: Human immunodeficiency virus type 1 reverse transcriptase (Human immunodeficiency virus 1)
- run description: Inhibition of HIV1 wild type p66/p51 reverse transcriptase
Scale for pIC50: -log10 of concentration given in mol/L; no unit attached.

NC(=O)c1[nH]cnc1-c1ccc(Cl)c(Br)c1 = 5.00

Please turn your attention to the following entry.
Human immunodeficiency virus type 1 reverse transcriptase (Human immunodeficiency virus 1) assay, molecule N#CCC(=O)Cc1cccc(I)c1 , recorded pIC50 = 5.46

* * *

- run description: Inhibition of RNase H activity of HIV1 reverse transcriptase
- Set-up: species or system Human immunodeficiency virus 1
pIC50: −log10 of the molar value.
Classification field: class 1 = pIC50 at or over 4; class 0 = pIC50 under 4.

# count of solved cases: 5
NC(=O)c1sc(N)nc1-c1ccccc1 = class 0
NC(=O)c1[nH]cnc1-c1cccc(Cl)c1 = class 0
NC(=O)c1sc(N)nc1-c1cccc(C(=O)c2ccccc2)c1 = class 0
NC(=O)c1[nH]cnc1-c1ccc(Cl)c(Br)c1 = class 1
NC(=O)c1sc(N)nc1-c1cccc(-c2ccccc2)c1 = class 0

Task: Given NC(=O)c1sc(N)nc1-c1cccc(Cl)c1 , state whether its pIC50 is at least 4.
Result: class 0
